system.under.test: CCR5 (UniProt P51681)
protocol.details: cell-based or functional assay
property.label: log10(anti-HIV potency (IC50, nM) by cell fusion assay) (log10 of the value in nM)

INSERT INTO measurements (binder, test_value) VALUES
  ('RANTES derivative: signature sequence SEQ ID NO: 39 fused to positions 10-68 of native RANTES (SEQ ID NO: 1) (ligand) QGPPLSWSQVCCFAYIARPLPRAHIKEYFYTSGKCSNPAVVFVTRKNRQVCANPEKKWVREYINSLEMS', -1.00),
  ('RANTES derivative: signature sequence SEQ ID NO: 41 fused to positions 10-68 of native RANTES (SEQ ID NO: 1) (ligand) QGPPLMNLQVCCFAYIARPLPRAHIKEYFYTSGKCSNPAVVFVTRKNRQVCANPEKKWVREYINSLEMS', -0.92),
  ('RANTES derivative: signature sequence SEQ ID NO: 53 fused to positions 10-68 of native RANTES (SEQ ID NO: 1) (ligand) QGPPLMWSQVCCFAYIARPLPRAHIKEYFYTSGKCSNPAVVFVTRKNRQVCANPEKKWVREYINSLEMS', -1.70),
  ('RANTES derivative: signature sequence SEQ ID NO: 17 fused to positions 10-68 of native RANTES (SEQ ID NO: 1) (ligand) QGPPGDIVLACCFAYIARPLPRAHIKEYFYTSGKCSNPAVVFVTRKNRQVCANPEKKWVREYINSLEMS', -1.70),
  ('RANTES derivative: signature sequence SEQ ID NO: 15 fused to positions 10-68 of native RANTES (SEQ ID NO: 1) (ligand) QGPPLMQTTPCCFAYIARPLPRAHIKEYFYTSGKCSNPAVVFVTRKNRQVCANPEKKWVREYINSLEMS', -0.19),
  ('RANTES derivative: signature sequence SEQ ID NO: 62 fused to positions 10-68 of native RANTES (SEQ ID NO: 1) (ligand) QGPPLMSTQVCCFAYIARPLPRAHIKEYFYTSGKCSNPAVVFVTRKNRQVCANPEKKWVREYINSLEMS', -1.52),
  ('RANTES derivative: signature sequence SEQ ID NO: 47 fused to positions 10-68 of native RANTES (SEQ ID NO: 1) (ligand) QGPLSQSSQVCCFAYIARPLPRAHIKEYFYTSGKCSNPAVVFVTRKNRQVCANPEKKWVREYINSLEMS', -0.36),
  ('RANTES derivative: signature sequence SEQ ID NO: 7 fused to positions 10-68 of native RANTES (SEQ ID NO: 1) (ligand) QGPPLMWTQVCCFAYIARPLPRAHIKEYFYTSGKCSNPAVVFVTRKNRQVCANPEKKWVREYINSLEMS', -1.70),
  ('RANTES derivative: signature sequence SEQ ID NO: 46 fused to positions 10-68 of native RANTES (SEQ ID NO: 1) (ligand) QGPLSGWAQVCCFAYIARPLPRAHIKEYFYTSGKCSNPAVVFVTRKNRQVCANPEKKWVREYINSLEMS', -0.40),
  ('RANTES derivative: signature sequence SEQ ID NO: 36 fused to positions 10-68 of native RANTES (SEQ ID NO: 1) (ligand) QGPPLQWRQSCCFAYIARPLPRAHIKEYFYTSGKCSNPAVVFVTRKNRQVCANPEKKWVREYINSLEMS', -1.30),
  ('RANTES derivative: signature sequence SEQ ID NO: 16 fused to positions 10-68 of native RANTES (SEQ ID NO: 1) (ligand) QGPPGDTVLWCCFAYIARPLPRAHIKEYFYTSGKCSNPAVVFVTRKNRQVCANPEKKWVREYINSLEMS', -1.70),
  ('RANTES derivative: signature sequence SEQ ID NO: 49 fused to positions 10-68 of native RANTES (SEQ ID NO: 1) (ligand) QGPLGQQGQVCCFAYIARPLPRAHIKEYFYTSGKCSNPAVVFVTRKNRQVCANPEKKWVREYINSLEMS', -0.13),
  ('RANTES derivative: signature sequence SEQ ID NO: 20 fused to positions 10-68 of native RANTES (SEQ ID NO: 1) (ligand) QGPLSGQSTPCCFAYIARPLPRAHIKEYFYTSGKCSNPAVVFVTRKNRQVCANPEKKWVREYINSLEMS', -0.18),
  ('RANTES derivative: signature sequence SEQ ID NO: 56 fused to positions 10-68 of native RANTES (SEQ ID NO: 1) (ligand) QGPPLMSSQSCCFAYIARPLPRAHIKEYFYTSGKCSNPAVVFVTRKNRQVCANPEKKWVREYINSLEMS', -0.82),
  ('RANTES derivative: signature sequence SEQ ID NO: 67 fused to positions 10-68 of native RANTES (SEQ ID NO: 1) (ligand) QGPPLMSAQSCCFAYIARPLPRAHIKEYFYTSGKCSNPAVVFVTRKNRQVCANPEKKWVREYINSLEMS', -0.92),
  ('RANTES derivative: signature sequence SEQ ID NO: 14 fused to positions 10-68 of native RANTES (SEQ ID NO: 1) (ligand) QGPLLMWLQVCCFAYIARPLPRAHIKEYFYTSGKCSNPAVVFVTRKNRQVCANPEKKWVREYINSLEMS', -0.89),
  ('RANTES derivative: signature sequence SEQ ID NO: 45 fused to positions 10-68 of native RANTES (SEQ ID NO: 1) (ligand) QGPPLMSLTVCCFAYIARPLPRAHIKEYFYTSGKCSNPAVVFVTRKNRQVCANPEKKWVREYINSLEMS', -1.70),
  ('RANTES derivative: signature sequence SEQ ID NO: 68 fused to positions 10-68 of native RANTES (SEQ ID NO: 1) (ligand) QGPPLMSGQSCCFAYIARPLPRAHIKEYFYTSGKCSNPAVVFVTRKNRQVCANPEKKWVREYINSLEMS', -0.77),
  ('RANTES derivative: signature sequence SEQ ID NO: 11 fused to positions 10-68 of native RANTES (SEQ ID NO: 1) (ligand) QGPPLMALQVCCFAYIARPLPRAHIKEYFYTSGKCSNPAVVFVTRKNRQVCANPEKKWVREYINSLEMS', -1.52),
  ('RANTES derivative: signature sequence SEQ ID NO: 38 fused to positions 10-68 of native RANTES (SEQ ID NO: 1) (ligand) QGPPLMQLQVCCFAYIARPLPRAHIKEYFYTSGKCSNPAVVFVTRKNRQVCANPEKKWVREYINSLEMS', -1.00);

Sourced from patent US20090317363A1
